Target: apical domain of CD71 (Screen 3: 'cynomolgus apical domain of human CD71') (cynomolgus (as paragraph 454 words it; ambiguous))
Experiment: primary ELISA, RLU ratio to HSA
Assign True whenever Apical domain:HSA does not fall below 300; assign False whenever it does.

# binder, assignedLabel
data = [
    ("CD71-binding FN3 domain SEQ ID NO: 238 (designed binder) MSLPAPKNLVVSRVTEDSARLSWTAPDAAFDSFEIGYFENDYFGEAIVLTVPGSERSYDLTGLKPGTEYVVFIGGVKGGKWSAPLSAIFTT", "True"),
    ("CD71-binding FN3 domain SEQ ID NO: 329 (designed binder) MSLPAPKNLVVSRVTEDSARLSWTAPDAAFDSFDIGYFEATYYGEAIVLTVPGSERSYDLTGLKPGTEYRVWIGGVKGGYYSNPLSAIFTT", "False"),
    ("CD71-binding FN3 domain SEQ ID NO: 296 (designed binder) MSLPAPKNLVVSRVTEDSARLSWTAPDAAFDSFDIGYFELTWYGEAIVLTVPGSERSYDLTGLKPGTEYWVSIGGVKGGIWSSPLSAIFTT", "False"),
    ("CD71-binding FN3 domain SEQ ID NO: 326 (designed binder) MSLPAPKNLVVSRVTEDSARLSWTAPDAAFDSFEIGYWENAYKGEAIVLTVPGSERSYDLTGLKPGTEYWVQIGGVKGGVWSTPLSAIFTT", "False"),
    ("CD71-binding FN3 domain SEQ ID NO: 328 (designed binder) MSLPAPKNLVVSRVTEDSARLSWTAPDAAFDSFEIGYFGNLYLGEAIVLTVPGSERSYDLTGLKPGTEYWVQIGGVKGGNWSAPLSAIFTT", "False"),
    ("CD71-binding FN3 domain SEQ ID NO: 236 (designed binder) MSLPAPKNLVVSRVTEDSARLSWTEPDAAFDSFEIGYFENLYLGEAIVLTVPGSERSYDLTGLKPGTEYWVQIGGVKGGNWSAPLSAIFTT", "False"),
    ("CD71-binding FN3 domain SEQ ID NO: 256 (designed binder) MSLPVPKNLVVSRVTEDSARLSWTAPDAAFDSFEIGYFENLYLGEAIVLTVPGSERSYDLTGLKPGTEYWVQIGGVKGGNWSAPLSAIFTT", "True"),
    ("CD71-binding FN3 domain SEQ ID NO: 280 (designed binder) MSLPAPKNLVVSRVTEDSARLSWTALDAAFDSFEIGYFENLYLGEAIVLTVPGSERSYDLTGLKPGTEYWVQIGGVKGGNWSAPLSAIFTT", "False"),
]
